TARGET_ENTITY: epithelial cell adhesion molecule (EpCAM) on MDA-MB-231 cells (human)
Sequence: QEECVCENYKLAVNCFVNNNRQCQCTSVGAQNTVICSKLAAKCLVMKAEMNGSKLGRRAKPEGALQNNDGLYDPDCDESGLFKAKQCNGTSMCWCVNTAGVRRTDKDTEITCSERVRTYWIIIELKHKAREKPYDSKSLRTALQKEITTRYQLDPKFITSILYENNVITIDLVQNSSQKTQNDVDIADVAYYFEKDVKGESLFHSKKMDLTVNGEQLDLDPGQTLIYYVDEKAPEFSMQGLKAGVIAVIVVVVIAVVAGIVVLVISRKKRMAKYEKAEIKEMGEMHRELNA
ASSAY_REMARKS: flow cytometry (MDA-MB-231 cells)
STATED_CONDITIONS: doxorubicin intercalated (non-covalent, about 2-3 per aptamer); Live-cell flow cytometry, 5e5 cells, 0-400 nM aptamer, PBS with 10% FCS, 0.1 mg/mL tRNA, 0.1 mg/mL BSA, 60 min, 37 C; aptamer folded in PBS with 5 mM MgCl2
OUTCOME_MEASURE: Kd (nM)
Output spec: scalar in nM, unitless text.

For the sequence GCGCGGTACCGCGCTAACGGAGGTTGCGTCCGT [TEPP-DOX] , what Kd is on record?
536
